Tested on: PC-3
Test Description: Cytotoxicity against human PC-3 cells assessed as reduction in cell viability incubated for 72 hrs by MTT assay
Format: functional, cell-based
Experimental Context: PC-3, 72 h
Experimental Endpoint: IC50 (µM)
Express it in µM; write the number only.

**Q:** IC50 lookup needed for C[C@@]1(C(=O)CO)CC[C@@H]2C(=C[C@H]3OC(=O)[C@]4(C)[C@H]3[C@]23CC[C@@]4(O)OC3)C1 , thanks.
**A:** 3.6

---

Tested on: HT-29
Test Description: Cytotoxicity against human HT-29 cells measured after 72 hrs by CellTiter 96 AQueous One Solution Cell Proliferation assay
Assay type: functional, cell-based
Experimental Context: HT-29, 72 h
Experimental Endpoint: IC50 (µM)
Give just the numeric value; µM need not be written.

**Q:** Need IC50 of C[C@@]12CC[C@@H]3C(=C[C@H]4OC(=O)[C@]5(C)[C@H]4[C@]34CC[C@@]5(O)OC4)[C@]1(O)OC[C@H]2O , thanks.
**A:** 4.2
